- tested-on: T1, recombinant mouse ROR2 (extracellular portion) (mouse, UniProt Q9Z138 34-403)
- T1 construct: also called mROR2
- method-description: dot blot on nylon membrane, anti-human IgG-HRP
reported-metric: binding result

binder: h6E6-072 (antibody, human IgG1, V domains shown, human IgG1; also called clone 72) VH: EVQLVESGGGLVKPGGSLRLSCAASGFTFSQYGHSWVRQAPGKGLEWVSTISSGGGYTHYADSVKGRFTISRDNAKNSLYLQMNSLRAEDTAVYYCARHPRDFSYAQDYWGQGTTVTVSS VL: EIVMTQSPATLSVSPGERATLSCKASQDVGHYLAWYQQKPGQAPRLLIYWASTRHTGIPARFSGSGSGTEFTLTISSLQSEDFAVYYCQQYNIYPWTFGQGTKVEIK
reading: no binding

binder: h6E6-107 (antibody, human IgG1, V domains shown, human IgG1; also called clone 107) VH: EVQLVESGGGLVKPGGSLRLSCAASGFTFSTYGASWVRQAPGKGLEWVSTISSGGGYTHYAPSVKGRFTISRDNAKNSLYLQMNSLRAEDTAVYYCARHPRDFSYALDYWGQGTTVTVSS VL: EIVMTQSPATLSVSPGERATLSCKASQDVGHYVAWYQQKPGQAPRLLIYWASTRATGIPARFSGSGSGTEFTLTISSLQSEDFAVYYCQQYNIYPWTFGQGTKVEIK
reading: no binding

binder: h6E6-116 (antibody, human IgG1, V domains shown, human IgG1; Alexa647 conjugate in flow cytometry) VH: EVQLVESGGGLVKPGGSLRLSCAASGFTFSTYGVSWVRQAPGKGLEWVSTISSGGGYTHYAGSVKGRFTISRDNAKNSLYLQMNSLRAEDTAVYYCARHPRDFSYALDYWGQGTTVTVSS VL: EIVMTQSPATLSVSPGERATLSCRASQDVGHYLAWYQQKPGQAPRLLIYWASTRATGIPARFSGSGSGTEFTLTISSLQSEDFAVYYCQQYNIYPWTFGQGTKVEIK
reading: no binding

Source of measurements: patent US20260209348A1
